Cited source: patent US11814435B2

system name: cyBCMA
assay info: Kinetics and affinity of cyBCMA/human IgG interactions by SPR (Bio-Rad Proteon XPR36)
Type: binding, cynomolgus
condition info: 37° C.
value type: kd (1/s) cyBCMA @37° C. (s⁻¹)
Give the number; s⁻¹ is assumed, so skip it.

Sample answers from the record:
{"columns": ["molecule", "kd (1/s) cyBCMA @37° C. / s⁻¹"],
 "data": [
  ["L3.PY/L3.KF/H2.LT: anti-BCMA antibody (antibody, V domains shown) VH: EVQLLESGGGLVQPGGSLRLSCAASGFTFGSYAMTWVRQAPGKGLEWVSAISLTGGNTFYADSVKGRFTISRDNSKNTLYLQMNSLRAEDTAVYYCARVSPIASGMDYWGQGTLVTVSS VL: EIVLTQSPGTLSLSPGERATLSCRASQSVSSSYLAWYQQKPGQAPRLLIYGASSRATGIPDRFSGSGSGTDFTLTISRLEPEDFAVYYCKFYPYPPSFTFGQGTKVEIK", 0.00413],
  ["L3.PY/L1.PS/H2.LT: anti-BCMA antibody (antibody, V domains shown) VH: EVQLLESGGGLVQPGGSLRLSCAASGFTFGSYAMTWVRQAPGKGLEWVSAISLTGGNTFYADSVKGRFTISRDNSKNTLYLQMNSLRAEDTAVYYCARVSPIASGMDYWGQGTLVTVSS VL: EIVLTQSPGTLSLSPGERATLSCRASQSVSSSYPSWYQQKPGQAPRLLIYGASSRATGIPDRFSGSGSGTDFTLTISRLEPEDFAVYYCQHYPYPPSFTFGQGTKVEIK", 0.00411]
]}

QUERY: Give the measured kd (1/s) cyBCMA @37° C. of L3.PY/L1.AH/H2.DY: anti-BCMA antibody (antibody, V domains shown) VH: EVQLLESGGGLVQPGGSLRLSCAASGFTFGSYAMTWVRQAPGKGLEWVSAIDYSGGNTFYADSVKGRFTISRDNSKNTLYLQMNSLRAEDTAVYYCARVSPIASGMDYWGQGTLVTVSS VL: EIVLTQSPGTLSLSPGERATLSCRASQSVSAHYLAWYQQKPGQAPRLLIYGASSRATGIPDRFSGSGSGTDFTLTISRLEPEDFAVYYCQHYPYPPSFTFGQGTKVEIK .
RESULT: 0.00451
